Each recorded value in this set is attributed to patent US8088763B2.

# system under test: NA-uptake (Rattus norvegicus, UniProt Q63380)
# Sequence (Q63380 1-617): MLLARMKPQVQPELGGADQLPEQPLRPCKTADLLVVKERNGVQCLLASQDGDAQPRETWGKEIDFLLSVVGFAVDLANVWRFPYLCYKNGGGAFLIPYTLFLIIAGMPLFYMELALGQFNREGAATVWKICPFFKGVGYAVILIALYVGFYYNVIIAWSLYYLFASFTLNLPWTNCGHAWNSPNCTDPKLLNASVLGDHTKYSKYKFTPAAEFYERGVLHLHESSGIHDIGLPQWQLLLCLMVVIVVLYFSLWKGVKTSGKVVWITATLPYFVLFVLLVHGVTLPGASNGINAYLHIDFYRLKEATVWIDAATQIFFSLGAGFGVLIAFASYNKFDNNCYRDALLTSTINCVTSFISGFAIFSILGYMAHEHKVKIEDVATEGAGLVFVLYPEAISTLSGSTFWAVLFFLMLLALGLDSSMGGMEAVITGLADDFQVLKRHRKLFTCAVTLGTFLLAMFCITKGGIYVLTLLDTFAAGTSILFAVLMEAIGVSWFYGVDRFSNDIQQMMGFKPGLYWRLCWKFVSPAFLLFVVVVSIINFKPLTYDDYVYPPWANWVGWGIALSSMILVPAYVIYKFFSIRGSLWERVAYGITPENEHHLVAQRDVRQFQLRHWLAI
# assay text: biochemical
# test settings: read-out: NA-uptake [10 μM], % inhibition
Assign yes to entries whose inhibition at 10 µM meets or exceeds 80%; assign no to the rest.

I'd appreciate it if you could say whether CN(Cc1cccnc1)C(=O)CCC(=O)NC1CCC(Cc2ccc(Cl)cc2)(N(C)C)CC1 (stereo not shown) has inhibition at 10 µM at least equal to 80%.
no

I'd appreciate it if you could say whether CCC(C)c1ccc(NC(=O)CCC(=O)NC2CCC(Cc3ccc(Cl)cc3)(N(C)C)CC2)cc1 (stereo not shown) has inhibition at 10 µM at least equal to 80%.
no

I'd appreciate it if you could say whether COc1ccc(F)c(CN2CCN(C(=O)CCCC(=O)NC3CCC(Cc4ccccc4)(N(C)C)CC3)CC2)c1 (stereo not shown) has inhibition at 10 µM at least equal to 80%.
yes

I'd appreciate it if you could say whether CC1CCN(C(=O)CCC(=O)NC2CCC(Cc3cccc(Cl)c3)(N(C)C)CC2)CC1 (stereo not shown) has inhibition at 10 µM at least equal to 80%.
yes

I'd appreciate it if you could say whether COc1ccc(CCN(C)C(=O)CCC(=O)NC2CCC(Cc3cccc(C)c3)(N(C)C)CC2)cc1OC (stereo not shown) has inhibition at 10 µM at least equal to 80%.
yes

I'd appreciate it if you could say whether COc1ccc(CNC(=O)CCC(=O)NC2CCC(Cc3ccc(Cl)cc3)(N(C)C)CC2)c(OC)c1 (stereo not shown) has inhibition at 10 µM at least equal to 80%.
yes

----------
inhibition at 10 µM overview
# system under test: 5HT-uptake (Rattus norvegicus)
# Construct: synaptosomes were freshly isolated from areas of rats' brains
# assay text: biochemical
# test settings: read-out: 5HT-uptake [10 μM], % inhibition
Please state the value followed by its unit.

Examples with their reported inhibition at 10 µM follow.
# molecule, inhibition at 10 µM
records = [
    ("Cc1cnc(C(=O)N2CCN(C(=O)CCCC(=O)NC3CCC(Cc4ccccc4)(N(C)C)CC3)CC2)cn1 (stereo not shown)", "92%"),
    ("CN(C)C1(Cc2ccc(Cl)cc2)CCC(NC(=O)CCC(=O)NCCc2cccc(F)c2)CC1 (stereo not shown)", "97%"),
    ("Cc1cccc(CC2(N(C)C)CCC(NC(=O)CCC(=O)N3CCc4[nH]c5ccc(F)cc5c4C3)CC2)c1 (stereo not shown)", "93%"),
]

Look up and report measured inhibition at 10 µM for this entry: Cc1ccc(CC2(N(C)C)CCC(NC(=O)CCC(=O)NC3CCCc4ccccc43)CC2)cc1 (stereo not shown)
93%

Look up and report measured inhibition at 10 µM for this entry: CN(C)C1(Cc2cccc(Cl)c2)CCC(NC(=O)CCC(=O)N2CC=CCC2)CC1 (stereo not shown)
94%

----------
# system under test: 5HT-uptake (Rattus norvegicus, UniProt P31652)
# Construct: synaptosomes were freshly isolated from areas of rats' brains
# Sequence (P31652 whole entry): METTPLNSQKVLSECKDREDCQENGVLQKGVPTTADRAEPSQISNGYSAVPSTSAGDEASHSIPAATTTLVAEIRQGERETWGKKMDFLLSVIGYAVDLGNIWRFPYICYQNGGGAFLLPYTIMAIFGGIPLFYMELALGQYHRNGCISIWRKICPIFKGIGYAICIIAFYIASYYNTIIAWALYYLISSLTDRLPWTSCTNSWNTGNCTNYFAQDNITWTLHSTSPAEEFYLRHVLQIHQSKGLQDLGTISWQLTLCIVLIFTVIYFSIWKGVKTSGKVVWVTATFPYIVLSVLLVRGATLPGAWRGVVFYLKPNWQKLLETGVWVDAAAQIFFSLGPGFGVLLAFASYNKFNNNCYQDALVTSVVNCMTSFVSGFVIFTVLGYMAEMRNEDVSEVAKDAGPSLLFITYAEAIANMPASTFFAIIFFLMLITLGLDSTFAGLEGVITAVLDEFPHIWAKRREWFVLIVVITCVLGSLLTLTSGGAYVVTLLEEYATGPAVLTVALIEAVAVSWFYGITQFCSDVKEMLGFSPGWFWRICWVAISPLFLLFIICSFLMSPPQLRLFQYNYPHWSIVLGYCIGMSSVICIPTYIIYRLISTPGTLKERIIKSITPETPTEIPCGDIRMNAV
# assay text: biochemical
5HT-uptake [10 μM], % inhibition overview
Output spec: scalar in %, unitless text.

# molecule, system under test, value unit, assay value
data = [
    ("CN(C)C1(Cc2ccc(Cl)cc2)CCC(NC(=O)CCC(=O)NC2CCCC2)CC1 (stereo not shown) [Example 44]", "5HT-uptake (Rattus norvegicus, UniProt P31652)", "%", 94),
    ("CN(C)C1(Cc2cccc(Cl)c2)CCC(NC(=O)CCC(=O)NCCc2c[nH]c3ccccc23)CC1 (stereo not shown) [Example 99]", "5HT-uptake (Rattus norvegicus, UniProt P31652)", "%", 94),
    ("COc1cc(CN2CCN(C(=O)CCCC(=O)NC3CCC(Cc4ccccc4)(N(C)C)CC3)CC2)cc2c1OCO2 (stereo not shown) [Example 54]", "5HT-uptake (Rattus norvegicus, UniProt P31652)", "%", 95),
]

Look up and report measured 5HT-uptake [10 μM], % inhibition for this entry: Cc1cccc(CC2(N(C)C)CCC(NC(=O)CCC(=O)N(C)CC(=O)OCc3ccccc3)CC2)c1 (stereo not shown) [Example 22]
95

----------
inhibition at 10 µM overview
# system under test: 5HT-uptake (Rattus norvegicus)
# Construct: synaptosomes were freshly isolated from areas of rats' brains
# assay text: biochemical
# test settings: read-out: 5HT-uptake [10 μM], % inhibition

# compound, attribute measured, assay value
data = [
    ("Cc1ccc(CC2(N(C)C)CCC(NC(=O)CCC(=O)N3CCN(c4ccc(Cl)cc4)CC3)CC2)cc1 (stereo not shown)", "inhibition at 10 µM", "94%"),
]

Look up and report measured inhibition at 10 µM for this entry: Cc1ccc(CC2(N(C)C)CCC(NC(=O)CCC(=O)N3CCN(C(=O)c4cnc(C)cn4)CC3)CC2)cc1 (stereo not shown)
92%

Look up and report measured inhibition at 10 µM for this entry: COc1cccc(N2CCN(C(=O)CCC(=O)NC3CCC(Cc4cccc(C)c4)(N(C)C)CC3)CC2)c1 (stereo not shown)
94%

----------
# system under test: NA-uptake (Rattus norvegicus, UniProt Q63380)
# assay text: biochemical
# test settings: read-out: NA-uptake [10 μM], % inhibition
Assign TRUE to entries whose inhibition at 10 µM meets or exceeds 90%; assign FALSE to the rest.

Check out these entries, answers already filled in.
# compound, assigned category
records = [
    ("Cc1cccc(CC2(N(C)C)CCC(NC(=O)CCC(=O)N3CCC(Cc4ccccc4)CC3)CC2)c1 (stereo not shown)", "TRUE"),
    ("Cc1ccc(CC2(N(C)C)CCC(NC(=O)CCC(=O)N(C)CCc3c[nH]c4ccccc34)CC2)cc1 (stereo not shown)", "TRUE"),
    ("CN(C)C1(Cc2ccc(Cl)cc2)CCC(NC(=O)CCC(=O)Nc2ccc3c(c2)CCC3)CC1 (stereo not shown)", "FALSE"),
    ("Cc1ccc(CC2(N(C)C)CCC(NC(=O)CCC(=O)Nc3ccc(OCc4ccccc4)cc3)CC2)cc1 (stereo not shown)", "FALSE"),
    ("CCOP(=O)(Cc1ccc(NC(=O)CCC(=O)NC2CCC(Cc3ccc(Cl)cc3)(N(C)C)CC2)cc1)OCC (stereo not shown)", "FALSE"),
    ("CCC(NC(=O)CCC(=O)NC1CCC(Cc2ccc(Cl)cc2)(N(C)C)CC1)c1ccccc1 (stereo not shown)", "TRUE"),
]

I'd appreciate it if you could say whether CN(C)C1(Cc2ccc(Cl)cc2)CCC(NC(=O)CCC(=O)N2CCN(C(=O)c3cccc(Cl)c3)CC2)CC1 (stereo not shown) has inhibition at 10 µM at least equal to 90%.
TRUE

I'd appreciate it if you could say whether CCOc1ccc(N2CCN(C(=O)CCC(=O)NC3CCC(Cc4ccc(Cl)cc4)(N(C)C)CC3)CC2)cc1 (stereo not shown) has inhibition at 10 µM at least equal to 90%.
FALSE

I'd appreciate it if you could say whether COCC(Cc1ccccc1)NC(=O)CCC(=O)NC1CCC(Cc2cccc(Cl)c2)(N(C)C)CC1 (stereo not shown) has inhibition at 10 µM at least equal to 90%.
TRUE

I'd appreciate it if you could say whether Cc1ccc(CC2(N(C)C)CCC(NC(=O)CCC(=O)NC(C)C(=O)OC(C)(C)C)CC2)cc1 (stereo not shown) has inhibition at 10 µM at least equal to 90%.
TRUE

----------
# system under test: NA-uptake (Rattus norvegicus, UniProt Q63380)
# assay text: biochemical
# test settings: read-out: NA-uptake [10 μM], % inhibition
attribute measured: inhibition at 10 µM (%)
Output spec: scalar in %, unitless text.

Examples with their reported inhibition at 10 µM follow.
# compound, inhibition at 10 µM (%)
measured = [
    ("CCOC(=O)CCNC(=O)CCC(=O)NC1CCC(Cc2ccc(C)cc2)(N(C)C)CC1 (stereo not drawn)", 91),
    ("C=CCOc1ccc(CN2CCN(C(=O)CCC(=O)NC3CCC(Cc4cccc(C)c4)(N(C)C)CC3)CC2)cc1 (stereo not drawn)", 98),
    ("CN(C)C1(Cc2ccc(Cl)cc2)CCC(NC(=O)CCC(=O)NC2CCN(Cc3ccc(C(F)(F)F)cc3)C2)CC1 (stereo not drawn)", 74),
    ("Cc1ccc(CC2(N(C)C)CCC(NC(=O)CCC(=O)NC3CCCc4ccccc43)CC2)cc1 (stereo not drawn)", 84),
]

Look up and report measured inhibition at 10 µM for this entry: Cc1ccc(CC2(N(C)C)CCC(NC(=O)CCC(=O)N3CCN(c4ccccn4)CC3)CC2)cc1 (stereo not drawn)
83

Look up and report measured inhibition at 10 µM for this entry: Cc1cccc(CC2(N(C)C)CCC(NC(=O)CCC(=O)N3CCN(Cc4c(Cl)cccc4Cl)CC3)CC2)c1 (stereo not drawn)
92

----------
NA-uptake [10 μM], % inhibition overview
# system under test: NA-uptake (Rattus norvegicus, UniProt Q63380)
# assay text: biochemical
Output spec: scalar in %, unitless text.

Examples with their reported NA-uptake [10 μM], % inhibition follow.
# compound, attribute measured, assay value
records = [
    ("COc1cc(CN2CCN(C(=O)CCCC(=O)NC3CCC(Cc4ccccc4)(N(C)C)CC3)CC2)cc2c1OCO2 (stereo not shown)", "NA-uptake [10 μM], % inhibition", 90),
    ("CN(C)C1(Cc2cccc(Cl)c2)CCC(NC(=O)CCC(=O)NCCc2c[nH]c3ccccc23)CC1 (stereo not shown)", "NA-uptake [10 μM], % inhibition", 99),
    ("Cc1cccc(CC2(N(C)C)CCC(NC(=O)CCC(=O)N(C)CC(=O)OCc3ccccc3)CC2)c1 (stereo not shown)", "NA-uptake [10 μM], % inhibition", 93),
]

Please find the next compound below.
Look up and report measured NA-uptake [10 μM], % inhibition for this entry: CN(C)C1(Cc2ccc(Cl)cc2)CCC(NC(=O)CCC(=O)NC2CCCC2)CC1 (stereo not shown)
84
